# experimental.target: Adenosine receptor A1 (Rattus norvegicus) (UniProt P25099)
# Sequence (P25099 whole entry): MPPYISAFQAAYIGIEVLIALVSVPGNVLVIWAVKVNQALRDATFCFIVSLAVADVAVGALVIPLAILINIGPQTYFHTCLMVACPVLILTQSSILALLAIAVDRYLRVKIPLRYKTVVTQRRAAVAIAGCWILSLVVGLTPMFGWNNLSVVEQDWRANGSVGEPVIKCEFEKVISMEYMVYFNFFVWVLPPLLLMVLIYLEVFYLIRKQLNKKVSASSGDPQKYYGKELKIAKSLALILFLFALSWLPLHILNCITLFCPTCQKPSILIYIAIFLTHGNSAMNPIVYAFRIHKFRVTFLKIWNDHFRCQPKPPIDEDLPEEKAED
# assay.method.text: Percent displacement from adenosine A1 receptor at 10e-5 M in rat brain membrane in vitro.
# Assay type: cell membranes
measured.property: Displacement (%)
Answers are plain numbers, in %.

compound | Displacement, %
Cc1ccc(C)c(Cn2c(C)c(CCNc3ncnc4c3ncn4C3O[C@H](C(=O)NC4CC4)[C@@H](O)[C@H]3O)c3ccccc32)c1 (stereo partly specified) | 56
Cc1ccc(C)c(Cn2cc(CCNc3ncnc4c3ncn4[C@@H]3O[C@H](C(=O)NC4CC4)[C@@H](O)[C@H]3O)c3cc(C)ccc32)c1 | 100
COCCn1cc(CCNc2ncnc3c2ncn3[C@@H]2O[C@H](C(=O)NC3CC3)[C@@H](O)[C@H]2O)c2ccccc21 | 98
Cc1c(CCNc2ncnc3c2ncn3[C@@H]2O[C@H](C(=O)NC3CC3)[C@@H](O)[C@H]2O)c2ccccc2n1C1CCCC1 | 77
O=C(NC1CC1)[C@H]1O[C@@H](n2cnc3c(NCCc4cn(C5CCCC5)c5ccccc45)ncnc32)[C@H](O)[C@@H]1O | 96

I would be grateful if you could provide Displacement for each of the following entries.
1. O=C(NC1CC1)[C@H]1O[C@@H](n2cnc3c(NCCc4cn(Cc5cccc([N+](=O)[O-])c5)c5ccccc45)ncnc32)[C@H](O)[C@@H]1O
2. Cc1ccc(C)c(Cn2cc(CCNc3ncnc4c3ncn4C3O[C@H](C(=O)NCCN4CCOCC4)[C@@H](O)[C@H]3O)c3ccccc32)c1 (stereo partly specified)
3. Cc1ccc(C)c(Cn2cc(CCNc3ncnc4c3ncn4[C@@H]3O[C@H](C(N)=O)[C@@H](O)[C@H]3O)c3ccccc32)c1

1. 100
2. 5
3. 87

====

# experimental.target: Adenosine A2 receptor (Rattus norvegicus) (UniProt P29276+P30543)
# assay.method.text: Percent displacement from adenosine A2 receptor at 10e-7 M in rat striatal membrane in vitro.
# Assay type: cell membranes
# measurement.conditions: Striatum
measured.property: Displacement (%)
Give bare numbers, in %.

See these solved cases before continuing.
compound | unit.annotation | result
Cc1ccc(C)c(Cn2cc(CC(C)Nc3ncnc4c3ncn4C3O[C@H](C(=O)NC4CC4)[C@@H](O)[C@H]3O)c3ccccc32)c1 (some centres not stated) | % | 9
Cc1ccccc1Cn1cc(CCNc2ncnc3c2ncn3C2O[C@H](C(=O)NC3CC3)[C@@H](O)[C@H]2O)c2ccccc21 (some centres not stated) | % | 27
COCCn1cc(CCNc2ncnc3c2ncn3[C@@H]2O[C@H](C(=O)NC3CC3)[C@@H](O)[C@H]2O)c2ccccc21 | % | 19

I would be grateful if you could provide Displacement for each of the following entries.
1. O=C(NC1CC1)[C@H]1OC(n2cnc3c(NCCc4c(-c5ccccc5)[nH]c5ccccc45)ncnc32)[C@H](O)[C@@H]1O (some centres not stated)
2. CNC(=O)[C@H]1O[C@@H](n2cnc3c(NCCc4cn(Cc5cc(C)ccc5C)c5ccccc45)ncnc32)[C@H](O)[C@@H]1O
3. COc1ccccc1Cn1cc(CCNc2ncnc3c2ncn3C2O[C@H](C(=O)NC3CC3)[C@@H](O)[C@H]2O)c2ccccc21 (some centres not stated)
4. Cc1ccc(C)c(Cn2cc(CCNc3ncnc4c3ncn4[C@@H]3O[C@H](C(=O)NC4CC4)[C@@H](O)[C@H]3O)c3cc(Cl)ccc32)c1
5. O=C(NC1CC1)[C@H]1O[C@@H](n2cnc3c(NCCc4c[nH]c5ccccc45)ncnc32)[C@H](O)[C@@H]1O
6. Cc1ccc(C)c(Cn2cc(CCNc3ncnc4c3ncn4[C@@H]3O[C@H](C(=O)NC4CC4)[C@@H](O)[C@H]3O)c3cc(C)ccc32)c1
7. OC[C@H]1OC(n2cnc3c(NCCc4cn(Cc5c(Cl)cccc5Cl)c5ccccc45)ncnc32)[C@H](O)[C@@H]1O (some centres not stated)
8. Cc1ccc(C)c(Cn2cc(C(C)CNc3ncnc4c3ncn4[C@@H]3O[C@H](C(=O)NC4CC4)[C@@H](O)[C@H]3O)c3ccccc32)c1 (some centres not stated)

1: 10; 2: 0; 3: 23; 4: 10; 5: 29; 6: 3; 7: 35; 8: 0

Look up Displacement with Adenosine A2 receptor (Rattus norvegicus) (UniProt P29276+P30543) for this compound: O=C(NC1CC1)[C@H]1O[C@@H](n2cnc3c(NCCc4cn(Cc5cccnc5)c5ccccc45)ncnc32)[C@H](O)[C@@H]1O 30
